Taken from PubChem BioAssay AID463173.

- System: Wild type
- methodDescription: S. aureus survival, RN4220 and DeltatarO strains – OD600, teichoic acid synthesis inhibitors, primary screen (AID 463173)
- details: S. aureus RN4220 wild type/DeltatarO growth, OD600, 18 h, hits give low values, screened at 18.75 µg/mL (by protocol)
In all, about 52,000 compounds went through this assay and about 1,700 (3.3%) were called active. The entries come from a sample that favours actives as a whole.
reportedProperty: survival (%)
Use % as the unit, but write only the number.

Completed entries (count: 3):
>>> measured("CCOc1ccc(Cn2nnc3c(=O)[nH]c(C4CCN(C(=O)c5ccccc5)CC4)nc32)cc1")
3
>>> measured("CCOc1cccc(C2c3c(oc4cc(C)c(C)cc4c3=O)C(=O)N2c2nc(C)c(C)s2)c1 (configuration not stated)")
71
>>> measured("COc1ccc(Cn2nnc3c(=O)[nH]c(C4CCN(C(=O)c5ccc(C)cc5)CC4)nc32)cc1OC")
53

Lookup result for "O=C(c1cccc(Cl)c1)N1CCC(c2nc3c(nnn3Cc3ccc(F)cc3F)c(=O)[nH]2)CC1" ; measured survival: 9

Lookup result for "COc1cccc(OC)c1Cn1nnc2c(=O)[nH]c(C3CCN(C(=O)c4ccccc4)CC3)nc21" ; measured survival: 76

Lookup result for CC(C)(C)C(=O)N1CCCC(c2nc3c(nnn3Cc3ccc(C(C)(C)C)cc3)c(=O)[nH]2)C1 (configuration not stated) ; measured survival: 50

Lookup result for "O=C(c1ccccc1)N1CCc2cc(CNS(=O)(=O)c3ccc(Cl)s3)ccc21" ; measured survival: 66

----------
- Test system: Wild type
- methodDescription: S. aureus survival, RN4220 and DeltatarO strains – OD600, teichoic acid synthesis inhibitors, primary screen (AID 463173)
- details: S. aureus RN4220 wild type/DeltatarO growth, OD600, 18 h, hits give low values, screened at 18.75 µg/mL (by protocol)
Among all 52,000 compounds or so, about 1,700 (3.3%) were called active. What follows is part of a selection rich in actives, with near analogues and random picks from the rest.
reportedProperty: survival (%)
Use % as the unit, but write only the number.

Completed entries (count: 2):
>>> measured("Cc1nc2c(C(=O)NCc3ccccc3Cl)c[nH]n2c(=O)c1Cc1cccc(Cl)c1")
-15
>>> measured("c1coc(-c2nc3ccccn3c2Nc2ccc3c(c2)OCCO3)c1")
70

Turning now to a further record.
Entry "CCCCNc1nc2c(c(=O)n(Cc3ccccc3)c(=O)n2C)n1C" , Wild type data, survival value: 67

----------
- System: Wild type
- methodDescription: S. aureus survival, RN4220 and DeltatarO strains – OD600, teichoic acid synthesis inhibitors, primary screen (AID 463173)
- details: S. aureus RN4220 wild type/DeltatarO growth, OD600, 18 h, hits give low values, screened at 18.75 µg/mL (by protocol)
Screen size: about 52,000 compounds; about 1,700 (3.3%) were called active. The sample as a whole holds a higher share of actives than the screen did.
reportedProperty: survival (%)
Use % as the unit, but write only the number.

Completed entries (count: 6):
>>> measured("Cc1c(C(=O)Nc2ccccc2Br)oc2ccc(S(=O)(=O)N3CCOCC3)cc12")
113
>>> measured("Cc1cccc(CNC(=O)CCn2ccc3cc(S(=O)(=O)N4CCCC4)ccc32)c1")
76
>>> measured("CCc1ccc(NS(=O)(=O)c2ccc3[nH]cc(C(=O)N(C)Cc4ccco4)c(=O)c3c2)cc1")
85
>>> measured("CN1CCN(C(=O)/C=C\\C(=O)O)CC1")
122
>>> measured("CCc1ccc(CNC(=O)CCCn2ccc3cc(S(=O)(=O)N4CCCC4)ccc32)cc1")
63
>>> measured("COC(=O)C1CCN(S(=O)(=O)c2ccc(OC)cc2)CC1")
102

Turning now to a further record.
Lookup result for "COc1ccc(-c2nnc(SCC(=O)Oc3c(C)cccc3C)o2)cc1OC" ; measured survival: 117

----------
Consider the following molecules and their measured survival readings.
- Tested on: Wild type
- methodDescription: S. aureus survival, RN4220 and DeltatarO strains – OD600, teichoic acid synthesis inhibitors, primary screen (AID 463173)
- details: S. aureus RN4220 wild type/DeltatarO growth, OD600, 18 h, hits give low values, screened at 18.75 µg/mL (by protocol)
The whole screen tested about 52,000 compounds, of which about 1,700 (3.3%) were called active. For the sample, actives were picked, then their nearest neighbours and some compounds at random.
Use % as the unit, but write only the number.

>>> measured("Cn1cc(-c2cc3n(n2)CCC(=O)N3CCCC(=O)NCc2ccc(Cl)cc2)c2ccccc21")
124
>>> measured("Cn1cc(-c2cc3n(n2)CCC(=O)N3CCCC(=O)Nc2ccccc2Cl)c2ccccc21")
-6
>>> measured("COc1cccc(N2CC(NC(=O)C(c3ccccc3)c3ccccc3)CC2=O)c1 (configuration not stated)")
65
>>> measured("CC1=C(c2ccc(C)cc2)S(=O)(=O)N(Cc2ccc(C(=O)Nc3ccc(F)cc3C)cc2)C1=O")
135
>>> measured("CN(C(=O)CSc1nc2ccc(NC(=O)c3cccs3)cc2s1)c1ccccc1")
77
>>> measured("COc1cccc(CNC(=O)c2cc(S(=O)(=O)N3CCCCC3)cn2C)c1")
-2

Entry "CC(C)OCCCNC(=O)C(=O)Nc1c2c(nn1-c1ccccc1)CS(=O)(=O)C2" , Wild type data, survival value: -6

Entry CC(=O)N1SC(N)=NC1c1ccccc1 (configuration not stated) , Wild type data, survival value: 111

Entry "CCOc1ccc(N(C)C(=O)C2CCN(S(=O)(=O)c3c(C)noc3/C=C/c3ccc(C)cc3)CC2)cc1" , Wild type data, survival value: 153

Entry "COc1ccccc1OCCSc1nc(-c2ccc(C(C)(C)C)cc2)nc2cc(=O)[nH]n12" , Wild type data, survival value: 22

Entry "Cc1ccc(CNC(=O)c2cc(S(=O)(=O)N3CCCCCC3)cn2C)cc1" , Wild type data, survival value: 81

Entry "Cc1ccc(CNC(=O)Cc2c(C(=O)O)c(C)cn2C)cc1" , Wild type data, survival value: 85

----------
- System: Wild type
- methodDescription: S. aureus survival, RN4220 and DeltatarO strains – OD600, teichoic acid synthesis inhibitors, primary screen (AID 463173)
- details: S. aureus RN4220 wild type/DeltatarO growth, OD600, 18 h, hits give low values, screened at 18.75 µg/mL (by protocol)
The whole screen tested about 52,000 compounds, of which about 1,700 (3.3%) were called active. The entries come from a sample that favours actives as a whole.
reportedProperty: survival (%)
Use % as the unit, but write only the number.

Completed entries (count: 6):
>>> measured("Cn1nc(C(=O)NCCc2ccc(Cl)cc2)c2c1-c1ccccc1SC2")
82
>>> measured("Cc1ccc(N2CCN(S(=O)(=O)c3ccc(-n4cnnn4)cc3)CC2)c(C)c1")
97
>>> measured("COc1cccc(NC(=O)C2=C(C)C(=O)OC23CCN(C(C)=O)CC3)c1")
79
>>> measured("O=C(OCc1cc(=O)n2nc(C3CC3)sc2n1)c1ccc(NC(=O)c2ccccc2Cl)cc1")
99
>>> measured("CC(C)(C)NC(=O)c1ccc2nc(CCc3ccccc3)oc2c1")
65
>>> measured("CC1CCCCN1S(=O)(=O)c1ccc(NC(=O)C2COc3ccccc3O2)cc1 (configuration not stated)")
125

Turning now to a further record.
Lookup result for COc1cc(NC(=O)CC(C)S(=O)(=O)c2ccc3c(c2)CCN3C(C)=O)cc(OC)c1OC (configuration not stated) ; measured survival: 76

----------
Consider the following compounds and their measured survival readings.
- Test system: Wild type
- methodDescription: S. aureus survival, RN4220 and DeltatarO strains – OD600, teichoic acid synthesis inhibitors, primary screen (AID 463173)
- details: S. aureus RN4220 wild type/DeltatarO growth, OD600, 18 h, hits give low values, screened at 18.75 µg/mL (by protocol)
The whole screen tested about 52,000 compounds, of which about 1,700 (3.3%) were called active. Shown is part of a subset that was picked to be rich in actives.
Use % as the unit, but write only the number.

Completed entries (count: 8):
>>> measured("CCOc1ccc(-n2c(SCC(=O)N3CCCC3)nc3c([nH]c4ccccc43)c2=O)cc1")
73
>>> measured("CCOc1ccccc1NC(=O)COC(=O)CC(C)(C)CC1=NS(=O)(=O)c2ccccc2N1")
63
>>> measured("O=C(Nc1cccc(Cl)c1)c1c(NC(=O)C(F)(F)F)sc2c1CCCC2")
-2
>>> measured("Cc1ccc(C)c(N2CCN(Cc3nnc(-c4ccccc4)o3)CC2)c1")
87
>>> measured("Cc1nnc(SCc2cc(=O)n3c(C)cccc3n2)s1")
81
>>> measured("NCC(O)CN1CCN(Cc2ccccc2)CC1 (stereo not given)")
105
>>> measured("CCCc1nn2c(=O)cc(COC(=O)c3cccc(NC(=O)c4ccc(OCC)cc4)c3)nc2s1")
-2
>>> measured("Cc1ccc(-n2c(SCC(=O)c3ccccc3)nc3c([nH]c4ccccc43)c2=O)cc1")
-6

Lookup result for "CCOc1ccc(-n2c(SCC(=O)N3CCCCC3)nc3c([nH]c4ccccc43)c2=O)cc1" ; measured survival: 94

Lookup result for "Cc1c(C(=O)Nc2ccc(F)c(F)c2)oc2ccc(S(=O)(=O)N(C)C3CCCCC3)cc12" ; measured survival: 74
